Origin of values: paper doi:10.1101/2021.10.01.462758v2

Target: D1R; D1 receptor fused to C-terminal RLuc (BRET assay) (Homo sapiens)
Test: cell-based
Design: species or system HEK293T
Conditions: HEK-293T, read-out: β-arrestin Emax (%), D1R
measure.name: Emax (%)

Solved entries:
Oc1cccc(-c2cncc3ccccc23)c1O [2h] :: 8.1
Nc1cccc(-c2cccc(O)c2O)c1 [2g] :: 4
Cc1cc(-c2cccc(O)c2O)cs1 [2a] :: 30.3
NS(=O)(=O)c1ccc(-c2cccc(O)c2O)cc1 [2f] :: 4.6

[A] Oc1cccc(-c2cccc(C(F)(F)F)c2)c1O [2b]
[B] Oc1cccc(-c2cccnc2)c1O [2d]
Req: Look at A and B . Which one has the lower recorded Emax number? Answer by stating the label of the chosen item.
Resp: B
(B: 2.6%, A: 6.13%)

====

Target: D2R; D2Long receptor fused to C-terminal RLuc (BRET assay) (Homo sapiens)
Assay: BRET beta-arrestin2 recruitment, HEK293T
Type: cell-based
measure.name: EC50 (µM)

CCCc1cc2c(s1)CN[C@@H]1CCc3cc(O)c(O)cc3[C@@H]21 [(-)-A-86929] :: 0.27
Oc1cc2c(cc1O)[C@@H]1c3cc(Br)sc3CN[C@H]1CC2 [1d] :: 5.62
CCCc1cc2c(s1)CN[C@H]1CCc3cc(O)c(O)cc3[C@H]21 [(+)-A-86929] :: 2.07
Oc1cc2c(cc1O)[C@H]1c3cc(-c4cccc(C(F)(F)F)c4)sc3CN[C@@H]1CC2 [1h] :: 4.84
OCCc1ccc(O)c(O)c1 [3a] :: 5.26
CN1Cc2sccc2[C@@H]2c3cc(O)c(O)cc3CC[C@H]21 (relative stereo) [1j] :: 7.48
CCCc1cc2c(s1)CN[C@@H]1CCc3cc(OC(C)=O)c(OC(C)=O)cc3[C@@H]21 [ABT-431] :: 3

====

Target: D2R; D2Long receptor fused to C-terminal RLuc (BRET assay) (Homo sapiens, UniProt P14416)
Sequence (P14416 whole entry, the tested form may be a part): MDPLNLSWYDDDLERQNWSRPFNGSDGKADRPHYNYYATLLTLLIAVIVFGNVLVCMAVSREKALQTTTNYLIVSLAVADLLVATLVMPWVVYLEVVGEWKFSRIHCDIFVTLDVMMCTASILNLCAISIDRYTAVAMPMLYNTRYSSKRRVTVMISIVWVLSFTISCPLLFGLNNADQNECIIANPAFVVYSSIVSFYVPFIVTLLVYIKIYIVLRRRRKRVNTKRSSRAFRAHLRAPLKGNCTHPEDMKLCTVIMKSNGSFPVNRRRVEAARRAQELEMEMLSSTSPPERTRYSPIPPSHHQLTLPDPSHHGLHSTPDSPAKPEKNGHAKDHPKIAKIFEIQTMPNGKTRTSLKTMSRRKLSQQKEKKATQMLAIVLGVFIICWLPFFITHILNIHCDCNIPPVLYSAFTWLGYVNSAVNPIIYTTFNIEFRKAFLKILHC
Assay: cell-based
Set-up: species or system HEK293T
measure.name: EC50 (nM)
Numbers only here, please. The scale is nM.

Query N#Cc1ccc(-c2cccc(O)c2O)cc1 yields EC50 of 31.7

====

Molecular target: D1R; D1 receptor fused to C-terminal RLuc (BRET assay) (Homo sapiens, UniProt P21728)
Sequence (P21728 whole entry, the tested form may be a part): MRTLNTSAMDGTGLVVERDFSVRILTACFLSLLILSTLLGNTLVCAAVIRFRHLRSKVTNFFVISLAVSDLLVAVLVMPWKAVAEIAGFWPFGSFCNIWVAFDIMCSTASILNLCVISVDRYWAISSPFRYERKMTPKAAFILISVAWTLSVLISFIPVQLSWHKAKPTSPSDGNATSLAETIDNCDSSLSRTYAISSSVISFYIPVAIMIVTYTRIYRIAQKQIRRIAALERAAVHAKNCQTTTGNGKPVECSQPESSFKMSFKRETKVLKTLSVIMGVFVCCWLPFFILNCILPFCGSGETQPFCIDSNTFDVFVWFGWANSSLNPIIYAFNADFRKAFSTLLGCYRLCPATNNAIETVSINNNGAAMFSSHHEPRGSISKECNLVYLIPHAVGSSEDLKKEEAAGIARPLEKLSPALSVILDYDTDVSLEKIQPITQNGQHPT
Test: cell-based
Design: species or system HEK293T
Conditions: HEK-293T, read-out: β-arrestin Emax (%), D1R
measure.name: Emax (%)
Numbers only here, please. The scale is %.

N[C@H]1CCc2cc(O)c(O)cc2[C@@H]1c1cccs1 (racemic) :: 3.7

Query CCCc1cc2c(s1)CN[C@H]1CCc3cc(O)c(O)cc3[C@H]21 [(+)-A-86929] yields Emax of 94.1

Query CCCc1cc2c(s1)CN[C@@H]1CCc3cc(O)c(O)cc3[C@@H]21 [(-)-A-86929] yields Emax of 95.5

Query CCCc1cc2c(s1)CN[C@@H]1CCc3cc(OC(C)=O)c(OC(C)=O)cc3[C@@H]21 yields Emax of 88.2

====

Molecular target: D2R; D2Long receptor fused to C-terminal RLuc (BRET assay) (Homo sapiens)
Test: cell-based
Set-up: species or system HEK293T
Conditions: HEK-293T, read-out: β-arrestin Emax (%), D2R
measure.name: Emax (%)

CCCc1cc2c(s1)CN[C@H]1CCc3cc(O)c(O)cc3[C@H]21 [(+)-A-86929] :: 38

[1] Oc1cc2c(cc1O)[C@H](c1cccs1)[C@@H](NCc1ccccc1)CC2 (racemic)
[2] N[C@H]1CCc2cc(O)c(O)cc2[C@@H]1c1cccs1 (racemic)
[3] Oc1cc2c(cc1O)[C@H]1c3cc(-c4cccc(C(F)(F)F)c4)sc3CN[C@@H]1CC2
Req: Sort the 3 compounds by Emax; largest first, smallest last. Provide your answer as the labels ordered per the instruction.
Resp: 3, 2, 1

====

Molecular target: D1R; D1 receptor fused to C-terminal RLuc (BRET assay) (Homo sapiens, UniProt P21728)
Test: BRET beta-arrestin2 recruitment, HEK293T
Type: cell-based
measure.name: EC50 (nM)

Oc1cccc(-c2cccc(C(F)(F)F)c2)c1O :: 5.2
CCCc1cc2c(s1)CN[C@@H]1CCc3cc(O)c(O)cc3[C@@H]21 [(-)-A-86929] :: 607
Oc1cccc(-c2cccnc2)c1O :: 53
CCCc1cc2c(s1)CN[C@@H]1CCc3cc(OC(C)=O)c(OC(C)=O)cc3[C@@H]21 :: 3200

[a] OCCCc1ccc(O)c(O)c1
[b] Nc1cccc(-c2cccc(O)c2O)c1
[c] OCCc1ccc(O)c(O)c1
[d] NS(=O)(=O)c1ccc(-c2cccc(O)c2O)cc1
[e] Cc1cc(-c2cccc(O)c2O)cs1
Req: Sort the 5 compounds by EC50; largest first, smallest last. Provide your answer as the labels ordered per the instruction.
Resp: e, a, c, d, b
(e: 6900 nM, a: 534 nM, c: 229 nM, d: 51.4 nM, b: 7.33 nM)

====

Measured Emax, listed per entry.
Target: D1R; D1 receptor fused to C-terminal RLuc (BRET assay) (Homo sapiens)
Test: cell-based
Set-up: species or system HEK293T
Conditions: HEK-293T, read-out: β-arrestin Emax (%), D1R
Numbers only here, please. The scale is %.

Oc1cc2c(cc1O)[C@@H]1c3cc(Br)sc3CN[C@H]1CC2 :: 52.8
Oc1cc2c(cc1O)[C@H]1c3cc(Br)sc3CN[C@@H]1CC2 [1c] :: 137

Query Oc1cc2c(cc1O)[C@H]1c3cc(Br)sc3CN[C@@H]1CC2 (racemic) [1b] yields Emax of 138

====

Target: D2R; D2Long receptor fused to C-terminal RLuc (BRET assay) (Homo sapiens, UniProt P14416)
Test: cell-based
Design: species or system HEK293T
Settings: HEK-293T, read-out: β-arrestin Emax (%), D2R
Measured Emax, listed per entry.
Numbers only here, please. The scale is %.

Oc1cc2c(cc1O)[C@H]1c3cc(Br)sc3CN[C@@H]1CC2 [1c] :: 70.3
Oc1cc2c(cc1O)[C@@H]1c3cc(Br)sc3CN[C@H]1CC2 :: 50.6
CN1Cc2sccc2[C@@H]2c3cc(O)c(O)cc3CC[C@H]21 (relative stereo) :: 73.4
CCCc1cc2c(s1)CN[C@@H]1CCc3cc(OC(C)=O)c(OC(C)=O)cc3[C@@H]21 :: 23
Oc1cc2c(cc1O)[C@H]1c3cc(Br)sc3CN[C@@H]1CC2 (racemic) [1b] :: 60.3

Query CCCc1cc2c(s1)CN[C@@H]1CCc3cc(O)c(O)cc3[C@@H]21 [(-)-A-86929] yields Emax of 79.7

====

Target: D1R; D1 receptor fused to C-terminal RLuc (BRET assay) (Homo sapiens, UniProt P21728)
Assay: BRET beta-arrestin2 recruitment, HEK293T
Assay type: cell-based
pEC50: −log10 of the molar value.
measure.name: pEC50

Oc1cccc(-c2cnc3ccccc3c2)c1O :: < 5.00
N#Cc1ccc(-c2cccc(O)c2O)cc1 :: < 5.00
Oc1cc2c(cc1O)[C@@H]1c3cc(Br)sc3CN[C@H]1CC2 :: 5.58

Query Oc1cccc(-c2cncc3ccccc23)c1O yields pEC50 of 6.16

Query Oc1cc2c(cc1O)[C@H]1c3cc(-c4cccc(C(F)(F)F)c4)sc3CN[C@@H]1CC2 yields pEC50 of < 5.00

Query N#Cc1cccc(-c2cccc(O)c2O)c1 yields pEC50 of < 5.00

Query Oc1cc2c(cc1O)[C@@H]1c3cc(-c4cccc(C(F)(F)F)c4)sc3CN[C@H]1CC2 yields pEC50 of < 5.00

Query CCCc1cc2c(s1)CN[C@H]1CCc3cc(O)c(O)cc3[C@H]21 [(+)-A-86929] yields pEC50 of 5.55

Query CN1Cc2sccc2[C@@H]2c3cc(O)c(O)cc3CC[C@H]21 (relative stereo) yields pEC50 of < 5.00
